- Tested System: T1, ZIKV (prM80E) with a C-terminal myc-myc-hexahistidine tag (Zika virus, UniProt A0A024B7W1 104-694)
- T1 construct: also called ZIKV (prM80E)-mmH; ZIKV-mmH
- Measurement Description: SPR, mAb captured, 37C
Endpoint: koff (s⁻¹)
Value expressed in s⁻¹; do not type the unit.

1) H4H25566P (antibody, V domains shown) VH: QVQLQESGPGLVKPSQTLSLTCTVSGGSISSGGYYWSWIRQHPGKGLEWIGYIYYSGSTYYNPSLKSRITISIDTSKNQFSLKLTSVTAADTAVYYCARGQQLLSFDYWGQGTLVTVSS VL: DIQMTQSPSSVSASVGDRVTITCRASQGISRWLAWYQLKPGKPPTPLIYAASSLQSGAPSRFSGRGSGTDFTLTISSLQPEDFATYYCQQANSFPYTFGQGTKLEIK    0.036
2) H4H25602P (antibody, V domains shown) VH: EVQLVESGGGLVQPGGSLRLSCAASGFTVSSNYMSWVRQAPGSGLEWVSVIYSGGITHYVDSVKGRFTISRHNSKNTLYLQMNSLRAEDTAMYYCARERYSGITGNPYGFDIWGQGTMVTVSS VL: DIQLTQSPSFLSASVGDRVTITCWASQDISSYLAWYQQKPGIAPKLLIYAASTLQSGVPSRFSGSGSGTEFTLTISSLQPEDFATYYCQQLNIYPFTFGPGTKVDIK    0.000284

# next binder below
Request: # get_value(readout='koff', item= H4H25617P (antibody, V domains shown) VH: EVQLVESGGGLVQPGGSLRLSCSASGFTFTTYAMSWVRQAPGRGLEWVSSISGTGVSTYYADSVKGRFTISRDNSKNALYLQMNSLTAEDTAVYYCAKDSGTYHWGQGTLVTVSS VL: EIVLTQSPATLSLSPGERATLSCRASQSVDSYLAWYQQKPGQAPRLLIYDASNRATGIPARFSGSGSGTDFTLTISSLESEDFAVYYCQQRRNWPQFTFGGGTKVEIK )
Response: 0.00729

Recorded values, source patent US20180016324A1.
